- System: CAKI-1 renal
- procedure.summary: NCI tumour cell line growth inhibition, 48 h; in the data active = GI50 below about 0.43 µM; inactive = the rest
// classify into t = active, f = inactive

In: # lookup: test call for COC1=CC2CCN3Cc4cc5c(cc4C(C1O)C23)OCC5 (centres undefined)
Out: f

In: # lookup: test call for CC/C(=N/N=C(N)N)c1ccc(NC(=O)Nc2ccc(/C(CC)=N/N=C(N)N)cc2)cc1
Out: f

In: # lookup: test call for COc1ccc2nc3cc(Cl)ccc3c(Nc3cc(C(C)C)c(O)cc3C)c2c1
Out: f

In: # lookup: test call for O=C1N=C(Nc2nc(-c3csc(NC4=NC(=O)/C(=C\c5ccc(Cl)cc5)S4)n3)cs2)S/C1=C/c1ccc(Cl)cc1
Out: f

In: # lookup: test call for COc1ccc(/C=C2/CN(CCC#N)C/C(=C\c3ccc(OC)cc3)C2=O)cc1
Out: f

In: # lookup: test call for CN1CCN(c2ccc(Nc3ncc4cc5n(c4n3)C3(CCCCC3)CNC5=O)nc2)CC1
Out: t

In: # lookup: test call for COc1cc(/C=C/c2cc(O)c(C/C=C(\C)CC/C=C(\C)CO)c(O)c2)cc2c1O[C@]1(C)CC[C@@H](O)C(C)(C)[C@H]1C2
Out: f

In: # lookup: test call for CCN(CCO)CCCOc1ccc2c(Nc3cc(CC(=O)Nc4cccc(F)c4)[nH]n3)ncnc2c1
Out: f

In: # lookup: test call for Cc1cc2c(cc1Cl)SC(C(=O)c1ccc(Cl)c(Cl)c1)NS2(=O)=O (centres undefined)
Out: f

###

- Test system: HS 578T breast
- procedure.summary: NCI tumour cell line growth inhibition, 48 h
For each entry below, report its TGI value.

In: Query: TGI; subject: COC(=O)c1ccc(/C=C2\Oc3cc(O)ccc3C2=O)cc1
Out: > 100 µM

In: Query: TGI; subject: Cc1cc2c(cc1Cl)N1C(=O)NS(=O)(=O)N=C1NS2(=O)=O
Out: > 100 µM

In: Query: TGI; subject: Nc1ccc(C(=O)Nc2ccccc2N)cc1
Out: > 100 µM

In: Query: TGI; subject: CCOP(=O)(OCC)C(Nc1cccc(F)c1)c1ccc(N(C)C)cc1 (stereo not drawn)
Out: > 100 µM

In: Query: TGI; subject: O=c1c2cc(S(=O)(=O)O)ccc2nc(COc2ccc(Oc3ccc(Cl)cc3Cl)cc2)n1C(=S)Nc1ccc(Cl)cc1
Out: 44.8 µM

In: Query: TGI; subject: COC1=CC2CCN3Cc4cc5c(cc4C(C1O)C23)OCC5 (stereo not drawn)
Out: > 32.7 µM

In: Query: TGI; subject: Cc1c(O)c(Br)c(C)c(O)c1Br (tested in a mixture with another compound)
Out: 19.9 µM

In: Query: TGI; subject: CC(C)[C@H](C(=O)O[C@@H]1/C=C/C(=O)O[C@@H](C)CCC/C=C/[C@@H]2C[C@H](O)C[C@H]21)N(C)C
Out: 45.9 µM

###

- System: SN12C renal
- procedure.summary: NCI tumour cell line growth inhibition, 48 h
Where a SMILES comes first, the peptide text is derived from it. [ ]: non-standard residue; d: D form. Hiv = CC(C)[C@H](O)C(=O)O
readout.type: TGI

In: Query: TGI; subject: CNCCN(C)Cc1cn[nH]c1-c1ccc(OC2CC(OCCC3CCOCC3)C2)cc1 (configuration not stated)
Out: > 100 µM

In: Query: TGI; subject: NCCNCCNc1ccc(NCCNCCN)c2c1C(=O)c1c(O)ccc(O)c1C2=O
Out: > 100 µM

In: Query: TGI; subject: N=C1C(c2nc3ccccc3s2)=C(O)CN1c1cc(Cl)cc(Cl)c1
Out: > 100 µM

In: Query: TGI; subject: CC(C)COC(c1ccc2c(c1)OCO2)C(C)Br (configuration not stated)
Out: 45 µM

In: Query: TGI; subject: Cc1c2cc[n+](C)cc2c(C)c2c1oc1ccccc12
Out: 4.57 µM

In: Query: TGI; subject: CCc1ccc2c(c1)C(=O)c1c-2n(CCCN)c(=O)c2cc([N+](=O)[O-])ccc12
Out: 2.95 µM

In: Query: TGI; subject: CCCCc1ccc(Nc2nc(Cl)c3ncn(C4CC(Oc5ccc(C)cc5)C(COc5ccc(C)cc5)O4)c3n2)cc1 (configuration not stated)
Out: > 100 µM

In: Query: TGI; subject: CCCCCCSc1nc(COC(=O)NC)c(COC(=O)NC)n1C
Out: > 100 µM

In: Query: TGI; subject: C=C(C)CC(C)(c1cc2ccccc2n1C)N1CCOCC1 (configuration not stated)
Out: > 100 µM

In: Query: TGI; subject: COC1=CC2CCN3Cc4cc5c(cc4C(C1O)C23)OCC5 (configuration not stated)
Out: 6.08 µM

In: Query: TGI; subject: COc1cc(-c2nn(-c3cccc(NC(=O)CCN4CCN(C)CC4)c3)cc2-c2ccncc2)ccc1Cl
Out: 8.45 µM

In: Query: TGI; subject: Nc1nnc2oc3ccc4ccccc4c3cc1-2
Out: 87 µM

In: Query: TGI; subject: COC(=O)NC(=O)c1cn(C2CCCCC2)c(=O)[nH]c1=O
Out: > 100 µM

In: Query: TGI; subject: C[N+]1(C)C[C@@H](O)C[C@@H]1C(=O)[O-]
Out: > 100 µM

In: Query: TGI; subject: Cc1ccc(/C=C2\NC(=S)N(CN3CCCCC3)C2=O)cc1
Out: > 100 µM

In: Query: TGI; subject: NC(=O)c1ncn(Cc2ccccc2)c1CNC(N)=S
Out: > 100 µM

In: Query: TGI; subject: O=C1N=C(Nc2nc(-c3csc(NC4=NC(=O)/C(=C\c5ccc(Cl)cc5)S4)n3)cs2)S/C1=C/c1ccc(Cl)cc1
Out: 33.7 µM

In: Query: TGI; subject: CCOC(=O)c1cc(-c2ccccc2)[nH]c1N/N=C/c1c(Cl)cccc1Cl
Out: > 100 µM

In: Query: TGI; subject: O=C1/C(=C/c2ccccc2[N+](=O)[O-])COc2ccc(O)c(O)c21
Out: 6.05 µM

In: Query: TGI; subject: COCOc1c(C(OCOC)c2cnc(Sc3ccccc3)n2C)ccc(OC)c1OC (configuration not stated)
Out: > 100 µM

In: Query: TGI; subject: COC(=O)/C=C1\CCCN1CCc1cc2c(cc1CC#N)OCO2
Out: > 100 µM

In: Query: TGI; subject: O=C(c1ccco1)c1c(C(F)(F)F)n([O-])c2ccc(F)cc2[n+]1=O
Out: 3.38 µM

In: Query: TGI; subject: O=C1N(CN2CCOCC2)CN(CN2CCOCC2)C(=O)N1Cc1ccc(CN2C(=O)N(CN3CCOCC3)CN(CN3CCOCC3)C2=O)cc1
Out: > 100 µM

In: Query: TGI; subject: CSc1nc2nc(C(O)C(O)C(O)CO)cnc2c(=O)[nH]1 (configuration not stated)
Out: > 100 µM

In: Query: TGI; subject: c1ccc2c3nnc(c2c1)SCCCSc1nnc(c2ccccc12)SCCCS3
Out: > 100 µM

In: Query: TGI; subject: N#C/C(C(=O)Nc1ccc(Cl)cc1)=C(/N)N1CCOCC1
Out: > 100 µM

In: Query: TGI; subject: COc1cc(/C=C/c2cc(O)c(C/C=C(\C)CC/C=C(\C)CO)c(O)c2)cc2c1O[C@]1(C)CC[C@@H](O)C(C)(C)[C@H]1C2
Out: > 100 µM

In: Query: TGI; subject: COc1ccc2c(c1)/C(=C\c1c(Cl)n(-c3ccccc3)c3ccccc13)C(=O)N2
Out: 35.5 µM

In: Query: TGI; subject: CNC(C)Cc1ccccc1OC (configuration not stated)
Out: > 100 µM

In: Query: TGI; subject: CCCCCC(=Nc1n[nH]nc1C(N)=O)OCC
Out: > 100 µM

In: Query: TGI; subject: COC(=O)/C(=N/NC(C)(C)C)C(C(=O)OC)C(=O)C(=O)Nc1nc2ccc([N+](=O)[O-])cc2s1 (configuration not stated)
Out: > 100 µM

In: Query: TGI; subject: N#CC1CCCCC1NC1(C#N)CCCCC1 (configuration not stated)
Out: > 100 µM

In: Query: TGI; subject: CCc1ccc(/C=C/C(=O)C2CN(CC)CCC2(O)/C=C/c2ccc(CC)cc2)cc1 (configuration not stated)
Out: 14.1 µM

In: Query: TGI; subject: CC(C)[C@@H]1OC(=O)[C@@H](C)NC(=O)[C@@H]2CCCN2C1=O (cyclo([Hiv]-Pro-[dA]))
Out: > 100 µM

In: Query: TGI; subject: c1c2c(cc3c1OCO3)-c1cc3ccc4c(c3c[n+]1CC2)OCO4
Out: > 12.5 µM

In: Query: TGI; subject: CN1CCc2cc3c4cc2C1Cc1ccc(cc1)Oc1cc(ccc1O)CC1c2c(cc(O)c(c2O4)O3)CCN1C (configuration not stated)
Out: 14.8 µM

In: Query: TGI; subject: CNc1ncc2cc(-c3cc(NC(=O)NCCC(C)(C)C)c(F)cc3C)c(C)nc2n1
Out: > 100 µM

In: Query: TGI; subject: COc1ccc(/C=C2\CCC(Cc3ccccc3)(CN(C)C)C2=O)cc1 (configuration not stated)
Out: > 100 µM

In: Query: TGI; subject: COc1ccc2nc3cc(Cl)ccc3c(Nc3cc(C(C)C)c(O)cc3C)c2c1
Out: 7.42 µM

In: Query: TGI; subject: CC(=O)NC(CCCNC(=O)OCc1ccccc1)C(=O)O (configuration not stated)
Out: > 100 µM

In: Query: TGI; subject: O=C1NC(=O)C(c2c[nH]c3ccccc23)=C1c1ccccc1
Out: > 25 µM

In: Query: TGI; subject: COc1ccc(-c2nc3sccn3c2-c2ccnc(NCCCNS(=O)(=O)c3ccc(F)cc3)n2)cc1
Out: > 100 µM

Source listed as PubChem BioAssay (NCI).
